Test: Population pharmacokinetics of caspofungin in ICU patients (two-compartment nonlinear mixed-effects model)
Type: in vivo, human
Details: human, serum, iv, typical clearance after third dose; 30 ICU patients; i.v.; final model; read-out: θCL day 3, Estimate (%RSE) (converted)
quantity: clearance (mL/min)
Field format: number, assumed mL/min, no unit text.

Item: CC[C@H](C)C[C@H](C)CCCCCCCCC(=O)N[C@H]1C[C@@H](O)[C@@H](NCCN)NC(=O)[C@@H]2[C@@H](O)CCN2C(=O)[C@H]([C@H](O)CCN)NC(=O)[C@H]([C@H](O)[C@@H](O)c2ccc(O)cc2)NC(=O)[C@@H]2C[C@@H](O)CN2C(=O)[C@H]([C@@H](C)O)NC1=O [caspofungin] | clearance: 16.8

---

Assay: Population pharmacokinetics of caspofungin in ICU patients (two-compartment nonlinear mixed-effects model)
Format: in vivo, human
Conditions: human, serum, iv, typical clearance after second dose; 30 ICU patients; i.v.; final model; read-out: θCL day 2, Estimate (%RSE) (converted)
quantity: clearance (mL/min)
I only need the number, in mL/min, no unit after it.

Short answer for `CC[C@H](C)C[C@H](C)CCCCCCCCC(=O)N[C@H]1C[C@@H](O)[C@@H](NCCN)NC(=O)[C@@H]2[C@@H](O)CCN2C(=O)[C@H]([C@H](O)CCN)NC(=O)[C@H]([C@H](O)[C@@H](O)c2ccc(O)cc2)NC(=O)[C@@H]2C[C@@H](O)CN2C(=O)[C@H]([C@@H](C)O)NC1=O` : clearance was 12.3
